Biological target: h-GABA-A α5β3γ2 (Homo sapiens, UniProt P18507+P31644)
Assay: [3H]flumazenil competition binding assay, membranes of HEK293 cells expressing GABAA receptors
Settings: displacement of [3H]-Flumazenil 0.5 nM, HEK293 cells expressing human receptors, mean of two determinations; Table 1
pKi: −log10 of the molar value.
Classification field: enter criterion met for pKi values not below 8, criterion not met for values below it.

q: Assess whether reported pKi for Cc1ccc(-c2noc(C)c2Cn2ncc(N3CCC(O)CC3)cc2=O)cn1 [Example 5] sits at 8 or higher.
a: criterion met

q: Kindly determine if pKi recorded for Cc1ccc(-c2noc(C)c2Cn2ncc(N3C4COCC3C4)cc2=O)cn1 [Example 33] is above or exactly 8.
a: criterion met

q: Does the reported pKi for Cc1ccc(-c2noc(C(F)F)c2Cn2ncc(N3C[C@@H](C)O[C@@H](C)C3)cc2=O)cn1 [Example 182] fall at or above the 8 mark?
a: criterion not met

q: Reported pKi at or above 8? Cc1ccc(-c2noc(C)c2Cn2ncc(-c3cnn(CC(F)F)c3)cc2=O)cn1 [Example 153]
a: criterion not met

q: Quick check, pKi >= 8? Cc1onc(-c2ccc(Cl)nc2)c1Cn1ncc(N2CCN(c3ccnnc3)CC2)cc1=O [Example 263]
a: criterion met

###

Task for the reader: assign each of the following compounds its reported Fold increase h-GABA-A α5β3γ2 oocyte.
Target: h-GABA-A α5β3γ2 (Homo sapiens, UniProt P18507+P31644)
Assay: Two-electrode voltage clamp electrophysiology in Xenopus laevis oocytes expressing GABAA receptors, modulation of GABA EC20 current
Type: cell-based
Parameters: host or cells: Xenopus laevis oocytes micro-injected with RNA transcripts of the subunits
Conditions: test compound at approx. 30 fold its Ki, GABA at EC20; Table 1
In your answer, state the number alone without any accompanying words.

q: Would you mind telling me what Fold increase h-GABA-A α5β3γ2 oocyte value was observed for Cc1ccc(-c2noc(C)c2Cn2ncc(N3CC(O)C3)cc2=O)cn1 [Example 105] ?
a: 1.72

q: Name the reported Fold increase h-GABA-A α5β3γ2 oocyte value associated with the compound Cc1ccc(-c2noc(C)c2Cn2ncc(-c3ccc(OC(C)C)cc3)cc2=O)cn1 [Example 115]
a: 1.87

q: Which Fold increase h-GABA-A α5β3γ2 oocyte value belongs to COc1cc(-c2cnn(Cc3c(-c4ccc(C)nc4)noc3C)c(=O)c2)c(F)cn1 [Example 191] ?
a: 2.26

q: Reported Fold increase h-GABA-A α5β3γ2 oocyte, compound Cc1onc(-c2ccc(Cl)nc2)c1Cn1ncc(N2CC(OC(C)C(F)(F)F)C2)cc1=O (single isomer, unassigned) [Example 265] : ____
a: 2.55

q: Fold increase h-GABA-A α5β3γ2 oocyte for Cc1ccc(-c2noc(C)c2Cn2ncc(N3CC(C)(O)C3)cc2=O)cn1 [Example 98] ?
a: 2.32

q: Fold increase h-GABA-A α5β3γ2 oocyte for Cc1ccc(-c2noc(C)c2Cn2ncc(N3CC(O)(C(F)(F)F)C3)cc2=O)cn1 [Example 117] ?
a: 3.26

q: Could you tell me which Fold increase h-GABA-A α5β3γ2 oocyte is on file for Cc1ccc(-c2noc(C)c2Cn2ncc(N(C)CC(C)(C)O)cc2=O)cn1 [Example 70] ?
a: 2.06

q: Tell me the measured Fold increase h-GABA-A α5β3γ2 oocyte of Cc1ccc(-c2noc(C)c2Cn2ncc(N3CC4(CCOCC4)C3)cc2=O)cn1 [Example 199] , please.
a: 2.17

q: // lookup Fold increase h-GABA-A α5β3γ2 oocyte for Cc1ccc(-c2noc(C)c2Cn2ncc(-c3ccnc(N(C)C)c3)cc2=O)cn1 [Example 156]
a: 1.66

q: Data request, read-out Fold increase h-GABA-A α5β3γ2 oocyte, for Cc1ccc(-c2noc(C)c2Cn2ncc(N3CC4(CCC4)C3)cc2=O)cn1 [Example 69]
a: 2.55

q: Tell me the measured Fold increase h-GABA-A α5β3γ2 oocyte of Cc1ccc(-c2noc(C)c2Cn2ncc(NCC3CCOCC3)cc2=O)cn1 [Example 88] , please.
a: 2.03

q: Look up Fold increase h-GABA-A α5β3γ2 oocyte: Cc1ccc(-c2noc(C)c2Cn2ncc(N3CC(OCC(F)F)C3)cc2=O)cn1 [Example 206]
a: 2.44

q: # input compound: Cc1onc(-c2ccc(Cl)nc2)c1Cn1ncc(N2CC(OC(C)C(F)(F)F)C2)cc1=O (single isomer, unassigned) [Example 266] ; wanted: its Fold increase h-GABA-A α5β3γ2 oocyte
a: 2.36

q: // returns reported Fold increase h-GABA-A α5β3γ2 oocyte for input Cc1onc(-c2ncc(C(F)(F)F)cn2)c1Cn1ncc(N2CC3(C2)CC(F)(F)CO3)cc1=O [Example 250]
a: 1.46

q: Given Cc1onc(-c2ccc(Cl)nc2)c1Cn1ncc(N2CCC3(CC2)CC(F)CCO3)cc1=O (single isomer, unassigned) [Example 330] , state its recorded Fold increase h-GABA-A α5β3γ2 oocyte.
a: 2.59

q: # query: Fold increase h-GABA-A α5β3γ2 oocyte of entry COc1ccc(-c2cnn(Cc3c(-c4ccc(C)nc4)noc3C)c(=O)c2)nc1 [Example 84]
a: 1.89
